Source of measurements: patent US8329716B2

System: isolated saphenous artery of rabbits
Experiment: Vessel-relaxing action in vitro, phenylephrine-induced contractions of isolated saphenous artery rings
Conditions: Oryctolagus cuniculus; concentration reducing phenylephrine-induced contraction of rabbit saphenous artery rings by 50% of control
measure.name: IC50 (nM)

smiles.representation: Nc1nc(Nc2ccc(Oc3ccnc4[nH]cc(Cl)c34)c(F)c2)cc(C(F)(F)F)n1
unit.info: nM
test.result: 45
//
smiles.representation: Cc1c[nH]c2nccc(Oc3c(F)cc(Nc4cc(Cl)nc(N)n4)cc3F)c12
unit.info: nM
test.result: 67
//
smiles.representation: N#Cc1c[nH]c2nccc(Oc3ccc(Nc4cc(C(F)(F)F)nc(N)n4)cc3F)c12
unit.info: nM
test.result: 19
